B1: HDV Ribozyme (parent)
chain: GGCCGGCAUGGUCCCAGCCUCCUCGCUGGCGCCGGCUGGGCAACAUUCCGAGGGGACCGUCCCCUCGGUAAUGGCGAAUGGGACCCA

variants of: B1; assay: self-cleavage, relative activity (ratio to wild type); higher = more cleavage; co-transcriptional
So basically: self-cleavage at 0.1 or higher? That is fulfilled. Lower than 0.1? That is not fulfilled.

>>> df
         var  class_name
0  C33U A43G   fulfilled
1  G50C G67C   fulfilled
2  C62U U72G   fulfilled
3  G73U A78G   fulfilled
4  G29U C32A   fulfilled

[Q] Threshold query (self-cleavage >= 0.1) on C15U G28C
[A] not fulfilled

[Q] Is self-cleavage for G10U G59C at or above 0.1?
[A] fulfilled

[Q] Check the entry U23A C44A : does self-cleavage equal or exceed 0.1?
[A] fulfilled

[Q] Has C33G G67A a recorded self-cleavage greater than or equal to 0.1?
[A] not fulfilled

[Q] Quick check: does C19U C22G have self-cleavage greater than or equal to 0.1?
[A] not fulfilled

[Q] Determine whether this variant has self-cleavage no lower than 0.1: G38U A87U
[A] fulfilled

[Q] Determine whether this variant has self-cleavage no lower than 0.1: U23G C63G
[A] fulfilled

[Q] Hi, just wondering whether U9A G38A shows self-cleavage of 0.1 or higher.
[A] fulfilled

[Q] Is reported self-cleavage greater than or equal to 0.1 here: G5C C49A
[A] fulfilled

[Q] // inclusive: self-cleavage at least 0.1? input: G6A C58U
[A] fulfilled

[Q] Check this variant for self-cleavage at or above 0.1: C48A G55U
[A] fulfilled

Recorded values, source the RNAGym collection of RNA variant scans (doi:10.7554/elife.80360).
